# System: hRXR α, β, or γ
# Experiment description: Transactivation assay (RARE-Luc dual luciferase reporter in HEK-293 cells), activity relative to LG268
# Type: cell-based, human
# Condition label: compound at 1 µM, 24 h; luciferase activity expressed relative to LG268
Readout label: Activity at 1 µM

1. CO/N=C(\c1ccc(C(=O)O)cc1)c1sc2c(c1C)C(C)(C)CCC2(C)C; **** (>0.9 to <1)
2. Cc1c(N(c2ccc(C(=O)O)cc2)S(C)(=O)=O)sc2c1C(C)(C)CCC2(C)C; **** (>0.9 to <1)
